# Assayed Target: various mutants of kinase EGFR (BaF3 cell lines stably transfected with kinase) (Homo sapiens, UniProt P00533, T790M/C797S, form not given)
# Construct: other: BaF3 cells stably transfected with EGFR Δ19Del/T790M/C797S; MTS, 48; other: BaF3 cell line stably transfected with EGFR Δ19Del/T790M/C7
# Sequence (P00533 with tags, fused parts or gaps DEL746-750/T790M/C797S, form open): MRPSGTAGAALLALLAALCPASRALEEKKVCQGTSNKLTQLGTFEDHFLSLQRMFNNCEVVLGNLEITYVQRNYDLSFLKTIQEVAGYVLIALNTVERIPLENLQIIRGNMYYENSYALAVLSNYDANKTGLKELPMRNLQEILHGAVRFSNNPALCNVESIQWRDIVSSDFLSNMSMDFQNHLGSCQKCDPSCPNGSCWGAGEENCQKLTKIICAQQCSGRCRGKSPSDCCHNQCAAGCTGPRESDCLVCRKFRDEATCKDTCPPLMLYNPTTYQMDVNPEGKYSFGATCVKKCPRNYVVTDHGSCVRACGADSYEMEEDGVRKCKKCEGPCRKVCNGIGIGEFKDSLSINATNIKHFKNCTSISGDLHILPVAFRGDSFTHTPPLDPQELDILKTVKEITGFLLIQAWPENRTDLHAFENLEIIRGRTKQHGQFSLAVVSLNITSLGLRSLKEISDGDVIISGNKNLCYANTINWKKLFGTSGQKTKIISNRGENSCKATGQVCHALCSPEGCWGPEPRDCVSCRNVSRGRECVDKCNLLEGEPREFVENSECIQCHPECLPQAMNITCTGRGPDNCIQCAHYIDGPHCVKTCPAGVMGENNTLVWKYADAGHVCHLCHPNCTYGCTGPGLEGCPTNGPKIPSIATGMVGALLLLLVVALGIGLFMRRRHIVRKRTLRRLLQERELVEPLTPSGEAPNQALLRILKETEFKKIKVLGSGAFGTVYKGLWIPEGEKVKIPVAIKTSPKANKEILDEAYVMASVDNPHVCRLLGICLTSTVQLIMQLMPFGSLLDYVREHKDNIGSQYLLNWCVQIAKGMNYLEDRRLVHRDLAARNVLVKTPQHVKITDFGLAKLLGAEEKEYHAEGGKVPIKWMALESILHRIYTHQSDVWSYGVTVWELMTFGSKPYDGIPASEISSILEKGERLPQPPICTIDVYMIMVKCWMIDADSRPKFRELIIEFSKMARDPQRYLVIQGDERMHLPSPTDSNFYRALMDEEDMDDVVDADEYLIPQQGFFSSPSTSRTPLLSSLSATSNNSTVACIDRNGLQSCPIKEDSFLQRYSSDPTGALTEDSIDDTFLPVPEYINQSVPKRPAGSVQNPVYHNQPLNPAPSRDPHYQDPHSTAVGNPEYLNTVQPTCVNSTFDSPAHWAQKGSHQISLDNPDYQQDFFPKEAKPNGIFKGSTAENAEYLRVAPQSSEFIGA
# Test Details: Growth inhibitory activity of compounds on BaF3 cell lines stably transfected with kinase (MTS, 48 h)
# Type: cell-based
# Condition Notes: BaF3 cells stably transfected with EGFR Δ19Del/T790M/C797S, read-out: IC50, growth inhibition, Δ19Del/T790M/C797S
pIC50: −log10 of the molar value.
Provide the reported pIC50 of each item.

Worked examples follow.
# Compound, pIC50
records = [
    ("COc1cc(N2CCC(N(C)C)CC2)c(C)cc1Nc1ncc(Cl)c(Nc2ccc3nccnc3c2N(C)S(=O)(=O)C(F)(F)F)n1 [Compound I-265]", "6.30 to 7.30"),
    ("CCS(=O)(=O)N(C)c1c(Nc2nc(Nc3ccc(N4CCC(N5CCN(C)CC5)CC4)cc3OC)ncc2Br)ccc2nccnc12 [Compound I-214]", "≥ 7.30"),
    ("COc1cc(N2CCN(C)CC2)ccc1Nc1ncc(Br)c(Nc2ccc3nccnc3c2N(C)S(C)(=O)=O)n1 [Compound I-38]", "≥ 7.30"),
    ("CCc1cc(Nc2ncc(Br)c(Nc3ccc4nccnc4c3N(C)S(=O)(=O)C(C)C)n2)c(OC)cc1N1CCC(N(C)C)C1 (centres unmarked) [Compound I-138]", "≥ 7.30"),
    ("CCc1cc(Nc2ncc(C(F)(F)F)c(Nc3ccc4nccnc4c3N(C)S(C)(=O)=O)n2)c(OC)nc1N1CCC(N2CCN(C)CC2)CC1 [Compound I-199]", "≥ 7.30"),
    ("COc1nc(N2CCC(N3CCN(C)CC3)CC2)ccc1Nc1ncc(Cl)c(Nc2ccc3nccnc3c2N(C)S(C)(=O)=O)n1 [Compound I-164]", "6.30 to 7.30"),
    ("COc1cc(N2CCC(N3CCN(C)CC3)CC2)ccc1Nc1ncc([N+](=O)[O-])c(Nc2ccc3nccnc3c2N(C)S(C)(=O)=O)n1 [Compound I-30]", "6.30 to 7.30"),
]

With those in mind, consider the next compound.
What pIC50 value was documented for this compound, COc1cc(N2CCC(N3CCN(C)CC3)CC2)c(C2CC2)cc1Nc1ncc(Br)c(Nc2ccc3nccnc3c2N(C)S(C)(=O)=O)n1 [Compound I-285] ? ≥ 7.30

// provenance: patent US20230310428A1
